Tested on: MS2 coat protein
Test: apparent KD of MS2 coat protein; higher = weaker reporter binding
Details: Eterna round: R107; input ligand: theophylline 20 uM
# if value of apparent KD of MS2 coat protein reaches 0.06 µM, tag yes; if it stays below, tag no

Solved entries:
>  <Sequence chain>
ACAUGAGGAUCACCCAUGUGGCGAGUUGAUACCAGACCCGCACUAGUCCCUUGGCAGCAACUACGUGUGGGACACCCAUGUUAAG [qpqmullin]

>  <Answer label>
yes

$$$$
>  <Sequence chain>
AACAUGAGGAUCACCCAUGUCCUCGUGAUUCGAGGACCGGUACGGCCGCCACUCGGUCCUCGCGAGGUGGAGUCAAAGACUCCAA [Omei Trp A SS A v3]

>  <Answer label>
yes

$$$$
>  <Sequence chain>
UUGGGUUUGUGAAGGAGCGGGAAUGUUUUAUAGUGGAUCCUAACAUGAGGAUCACCCAUGUCCCAGGUAGGUCGCGCGGGUUUGG [12.S]

>  <Answer label>
yes

$$$$
>  <Sequence chain>
AGCUCAUAGAGUGAUACCAGACUACAUGAGGAUCACCCAUGUUUCUUUUGGUUAUCAUGUGUCCCUUGGCAGCACAAGAAGAGCA [JR_ExcTheophyB_Sub015]

>  <Answer label>
no

$$$$
>  <Sequence chain>
AAUAACAUGAGGAUCACCCAUGUAAGUGGGCGAGGACCGGUACGGCCGCCACUCGGAUGAUGUUGACGAAAAGUCAGCAUCAUCA [#OpenEnded 2 #GuTurnoff #Tail]

>  <Answer label>
no

$$$$
>  <Sequence chain>
UUAAUGAUAUAUCAUAUGAUAUAUCCAGAAGGAGCGUCAUAAAUGGCAGGUAGGUCGCUGAAGGCAACAUGAGGAUCACCCAUGU [#16 Same State - Arginine A]

>  <Answer label>
no

$$$$
>  <Sequence chain>
AGACAUGAGGAUCACCCAUGUAGUACGGAUACCAGAUCCAGAUGUAUCCCUUGGCAGCUGUGGUACAGCGUUACAUCGCUCCUAG [Exclusion - Theophylline A (Freestyle 20)]

>  <Answer label>
no

$$$$
>  <Sequence chain>
UGACAUGAGGAUCACCCAUGUGUAAGAGAAGGAGCGGCCGGAAGGCCAGGUAGGUCGCUCAGGUAGCGUGAGGAUCACCCGUGUG [big_hook]

>  <Answer label>
yes

$$$$

Is apparent KD of MS2 coat protein for AGAUCUUUCGAAAGAAGGAUCUUGUCUGAUACCAGAGACGAAAGUCUCCCUUGGCAGCAGUGCCAACAUGAGGAUCACCCAUGUA [Theophylline A 12] at or above 0.06 µM? no

Entry UGGCGAGAAGGAAGGAGCGUCAGCUGAGUUACAUGAGGAUCACCCAUGUUGCACAUAGUGUGACAGGUAGGUCGCCUUCUGCCCU [SS-ArgB19] : is its apparent KD of MS2 coat protein no less than 0.06 µM? yes

Check if apparent KD of MS2 coat protein >= 0.06 µM (inclusive). Item: AUAUGAUCAUAUGAUACCAGAAAUGGUAUUCCUUUGUUUCUUACAUGAGGAUCACCCAUGUUCCCUUGGCAGCAUAUGAUCAUAU [ETHB #2] yes

For this sequence, is measured apparent KD of MS2 coat protein 0.06 µM or higher? GGCCAUGGAAACAUGGCGGCGGCAUAUGCGCGAGGACCGGUACGGCCGCCACUCGGGCAACAUGAGGAUCACCCAUGUUCCUCAU [ETA NP+V+V2 #24 +-Same Structure] yes
